studySystem: T1, AFP158/HLA-A*02:01 complex (human)
T1 construct: flowed over the chip in SPR; also called AFP158 pro
assayProtocol: SPR, scFv captured, pMHC in flow;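 further: complex injected at several concentrations over crude scFv, association then running-buffer dissociation, KD estimated from kinetic on- and off-rate constants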
# strict inequality: Kd < 200 nM yields YES, everything else yields NO

{"binder": "LE32D (scFv, AS170036 VL1VH1 scFv mutein) scFv: QSALTQPRSVSGSPGQSVTISCAGTSSDVGSDNYVSWYQQHPGKAPKLMIYQVNKRASGVPDRFSGSKSGNTASLTISGLQAEDEADYYCASYRSSDHNIVFGGGTKLTVLGGGGSGGGGSGGGGSEVQLVESGGGLVQPGGSLRLSCAASGFTFSSYAMSWVRQAPGKGLEWVSTINSGTGSPYYADSVKGRFTISRDNSKNTLYLQMNSLRAEDTAVYYCAKNFFDGSWFLGPPAMDYWGQGTLVTVSSHHHHHH", "label": "YES"}
{"binder": "LE32S (scFv, AS170036 VL1VH1 scFv mutein) scFv: QSALTQPRSVSGSPGQSVTISCAGTSSDVGSSNYVSWYQQHPGKAPKLMIYQVNKRASGVPDRFSGSKSGNTASLTISGLQAEDEADYYCASYRSSDHNIVFGGGTKLTVLGGGGSGGGGSGGGGSEVQLVESGGGLVQPGGSLRLSCAASGFTFSSYAMSWVRQAPGKGLEWVSTINSGTGSPYYADSVKGRFTISRDNSKNTLYLQMNSLRAEDTAVYYCAKNFFDGSWFLGPPAMDYWGQGTLVTVSSHHHHHH", "label": "NO"}
{"binder": "LD97K (scFv, AS170036 VL1VH1 scFv mutein) scFv: QSALTQPRSVSGSPGQSVTISCAGTSSDVGSENYVSWYQQHPGKAPKLMIYQVNKRASGVPDRFSGSKSGNTASLTISGLQAEDEADYYCASYRSSKHNIVFGGGTKLTVLGGGGSGGGGSGGGGSEVQLVESGGGLVQPGGSLRLSCAASGFTFSSYAMSWVRQAPGKGLEWVSTINSGTGSPYYADSVKGRFTISRDNSKNTLYLQMNSLRAEDTAVYYCAKNFFDGSWFLGPPAMDYWGQGTLVTVSSHHHHHH", "label": "NO"}

Next item in the queue.
Is it true that Kd reported for LY93M (scFv, AS170036 VL1VH1 scFv mutein) scFv: QSALTQPRSVSGSPGQSVTISCAGTSSDVGSENYVSWYQQHPGKAPKLMIYQVNKRASGVPDRFSGSKSGNTASLTISGLQAEDEADYYCASMRSSDHNIVFGGGTKLTVLGGGGSGGGGSGGGGSEVQLVESGGGLVQPGGSLRLSCAASGFTFSSYAMSWVRQAPGKGLEWVSTINSGTGSPYYADSVKGRFTISRDNSKNTLYLQMNSLRAEDTAVYYCAKNFFDGSWFLGPPAMDYWGQGTLVTVSSHHHHHH is less than 200 nM?
NO
